// provenance: patent US20110230472A1

Measurement record for CYP2C19 (Homo sapiens, UniProt P33261); quantity recorded: IC50.

molecule	target-under-test	IC50
CN1CCc2cc(N3CCn4nc(NC(=O)c5cc(O)no5)cc43)ccc2C1=O [Compound I-397]	CYP2C19 (Homo sapiens, UniProt P33261)	> 20 µM
CN1CCc2cc(N3CCn4nc(NC(=O)CC5CCNC5)cc43)ccc2C1=O.Cl.Cl (centres unmarked) [Compound I-356]	CYP2C19 (Homo sapiens, UniProt P33261)	> 20 µM
CNC(=O)Nc1nc2c(s1)CN(c1ccnc(OC)n1)CC2 [Compound I-142]	CYP2C19 (Homo sapiens, UniProt P33261)	> 20 µM
CN(C)C(=O)CCC(=O)Nc1cc2n(n1)CCN2c1cccc(Cl)c1 [Compound I-234]	CYP2C19 (Homo sapiens, UniProt P33261)	> 20 µM
CN1CCc2cc(N3CCn4nc(NC(=O)c5ccco5)cc43)ccc2C1=O [Compound I-358]	CYP2C19 (Homo sapiens, UniProt P33261)	> 20 µM
CN1CCc2cc(N3CCn4nc(NC(=O)c5cccnc5)cc43)ccc2C1=O [Compound I-347]	CYP2C19 (Homo sapiens, UniProt P33261)	> 20 µM
CNC(=O)Nc1nc2c(s1)CN(c1cc(Cl)nc(N)n1)CC2 [Compound I-118]	CYP2C19 (Homo sapiens, UniProt P33261)	> 20 µM
CC(C)NC(=O)c1ccc(C(=O)Nc2cc3n(n2)CCN3c2ccc3c(c2)CCN(C)C3=O)s1 [Compound I-407]	CYP2C19 (Homo sapiens, UniProt P33261)	> 20 µM
